- Tested on: L1210 leukemia ip in BDF1 mice, survival T/C
- experiment description: NCI In Vivo Anticancer Drug Screen. Data for tumor model L1210 Leukemia (intraperitoneal) in B6D2F1 (BDF1) mice
- applied conditions: endpoint: mean survival time; dose: 200.0 mg/kg/injection; schedule: Q01DX001 (ip); vehicle: other
Inconclusive results and toxic doses are left out. No stated cut-off is given here; in the data, active means T/C of 150% or more; inactive means T/C below 125%.
Labels: y = active, n = inactive

{"columns": ["compound", "cat"],
 "data": [
  ["Nc1nc(N)c2cc(CNc3ccc(C(=O)NC(CC(=O)O)CC(=O)O)cc3)ccc2n1", "y"],
  ["CC1CC=C(C(=O)O)CC1 (centres undefined)", "n"],
  ["O=C(N/N=C\\c1ccccc1C(=O)O)c1ccco1", "n"],
  ["ClCCN1CCOC1=Nc1ccccc1", "n"],
  ["COC(=O)Cc1cc(Cl)c2cc(C)ccc2n1", "n"],
  ["Cn1c(=O)cc(CC(=O)O)c2ccccc21", "n"],
  ["CC1=CC(=O)C(C(C)C)C1 (centres undefined)", "n"],
  ["O=C(Nc1csnn1)c1ccco1", "n"],
  ["Brc1ccc(N2N=C(c3ccccc3)N(c3ccc(Br)cc3)N=C2c2ccccc2)cc1", "n"]
]}

---

Entries and their measured T/C follow.
- Tested on: L1210 leukemia ip in BDF1 mice, survival T/C
- experiment description: NCI In Vivo Anticancer Drug Screen. Data for tumor model L1210 Leukemia (intraperitoneal) in B6D2F1 (BDF1) mice
- applied conditions: endpoint: mean survival time; dose: 100.0 mg/kg/injection; schedule: Q01DX009 (ip); vehicle: saline with Tween-80; higher = longer survival
Toxic doses and inconclusive results are not listed.

{"columns": ["compound", "assay target", "T/C"],
 "data": [
  ["COC1(OC)C(Cl)=C(Cl)C2C1C1(Cl)C(Cl)=C(Cl)C2(Cl)C1(OC)OC (stereo unspecified)", "L1210 leukemia ip in BDF1 mice, survival T/C", "98 % of control"],
  ["CCOC(=O)c1c(NC(=O)C(F)(F)F)[nH]c(SSc2[nH]c(NC(=O)C(F)(F)F)c(C(=O)OCC)c2C(=O)OCC)c1C(=O)OCC", "L1210 leukemia ip in BDF1 mice, survival T/C", "97 % of control"],
  ["CC(=O)NCc1cc2c3c(c1)CCCN3CCC2", "L1210 leukemia ip in BDF1 mice, survival T/C", "90 % of control"],
  ["CC(=O)NCc1ccc([N+](=O)[O-])cc1", "L1210 leukemia ip in BDF1 mice, survival T/C", "104 % of control"],
  ["C=CC1CN2CCC1CC2C(O)c1ccnc2ccc(OC)cc12 (stereo unspecified) (tested in a mixture with another compound)", "L1210 leukemia ip in BDF1 mice, survival T/C", "95 % of control"],
  ["COc1ccc(CNCC(=O)OCc2ccccc2)cc1", "L1210 leukemia ip in BDF1 mice, survival T/C", "100 % of control"],
  ["C(=C(c1ccccc1)c1ccccc1)c1ccccn1", "L1210 leukemia ip in BDF1 mice, survival T/C", "97 % of control"],
  ["OC1C(Cl)(Cl)CCCC1(Cl)Cl", "L1210 leukemia ip in BDF1 mice, survival T/C", "94 % of control"],
  ["CC(C)(C)C(=O)CC(=O)C(C)(C)C.CC(C)(C)C(=O)CC(=O)C(C)(C)C.CC(C)(C)C(=O)CC(=O)C(C)(C)C.[Pr]", "L1210 leukemia ip in BDF1 mice, survival T/C", "98 % of control"],
  ["Nc1ccc(C(=O)O)c(C(=O)O)c1", "L1210 leukemia ip in BDF1 mice, survival T/C", "101 % of control"],
  ["Cc1cc2c(cc1C)C(=O)OC2=O", "L1210 leukemia ip in BDF1 mice, survival T/C", "102 % of control"],
  ["CCCC(C)OC(=O)Nc1cccc(O)c1 (stereo unspecified)", "L1210 leukemia ip in BDF1 mice, survival T/C", "101 % of control"],
  ["O=C1OCc2cc3ccccc3nc21", "L1210 leukemia ip in BDF1 mice, survival T/C", "94 % of control"],
  ["CC1(c2cccs2)NC(=O)NC1=O (stereo unspecified)", "L1210 leukemia ip in BDF1 mice, survival T/C", "102 % of control"],
  ["O=C(Nc1ccc(Cl)c(Cl)c1)c1ccc2c(c1)C(=O)OC2=O", "L1210 leukemia ip in BDF1 mice, survival T/C", "106 % of control"],
  ["CC/S(=N\\S(=O)(=O)c1ccc(C)cc1)c1ccccc1 (stereo unspecified)", "L1210 leukemia ip in BDF1 mice, survival T/C", "108 % of control"],
  ["Nc1nc(=S)[nH][nH]1", "L1210 leukemia ip in BDF1 mice, survival T/C", "117 % of control"],
  ["N#CC(C(N)=O)c1ccccc1 (stereo unspecified)", "L1210 leukemia ip in BDF1 mice, survival T/C", "90 % of control"],
  ["COc1ccc(Cl)cc1NC(=O)c1ccc(Cl)cc1Cl", "L1210 leukemia ip in BDF1 mice, survival T/C", "96 % of control"],
  ["COc1cccn(C/C=C(\\C)CCC=C(C)C)c1=O", "L1210 leukemia ip in BDF1 mice, survival T/C", "90 % of control"],
  ["Cc1ccc(S(=O)(=O)N(CCC(=O)O)c2ccccc2)cc1", "L1210 leukemia ip in BDF1 mice, survival T/C", "90 % of control"],
  ["O=S(=O)(O)C(Nc1ccccc1)c1ccccc1 (stereo unspecified)", "L1210 leukemia ip in BDF1 mice, survival T/C", "100 % of control"],
  ["O=c1cc(C(O)c2ccccc2)c2cccc3c2n1CCC3 (stereo unspecified)", "L1210 leukemia ip in BDF1 mice, survival T/C", "95 % of control"],
  ["CCCCCCCCCCCCCC(=O)CCC", "L1210 leukemia ip in BDF1 mice, survival T/C", "106 % of control"],
  ["COc1ccc(OC)c(NC(=O)Nc2cc(OC)ccc2OC)c1", "L1210 leukemia ip in BDF1 mice, survival T/C", "106 % of control"],
  ["NC(=O)c1[nH]cnc1/N=N/N(CCO)Cc1ccccc1", "L1210 leukemia ip in BDF1 mice, survival T/C", "98 % of control"],
  ["C/C(Cc1cc(C)[nH]c(=S)n1)=N\\NC(N)=O", "L1210 leukemia ip in BDF1 mice, survival T/C", "92 % of control"],
  ["O=C(O)c1ccc(S(=O)(=O)F)c(Cl)c1", "L1210 leukemia ip in BDF1 mice, survival T/C", "100 % of control"],
  ["O=C(Nc1ccc2c(c1)OCO2)O/N=C\\c1cccnc1", "L1210 leukemia ip in BDF1 mice, survival T/C", "86 % of control"],
  ["CCCCCCCC(O)CCC(=O)NN (stereo unspecified)", "L1210 leukemia ip in BDF1 mice, survival T/C", "106 % of control"],
  ["O=C(N/N=C/c1ccc(-c2ccccc2)cc1)Nc1ccccc1", "L1210 leukemia ip in BDF1 mice, survival T/C", "92 % of control"]
]}
